# test_protocol: Plasma pharmacokinetics of AMG 232 at steady state (LC-MS/MS, noncompartmental)
# Type: in vivo, human
# test_parameters: human, plasma, oral, 180 mg, Cycle 2 Day 7, co-administered with T + D, Arm 1, 180 mg; geometric mean (CV%); read-out: AUC24hr
readout_label: AUC(0-t) (ng·h/mL)
# unit: ng·h/mL | format: bare number

// query Find the recorded AUC(0-t) belonging to CC(C)[C@@H](CS(=O)(=O)C(C)C)N1C(=O)[C@@](C)(CC(=O)O)C[C@H](c2cccc(Cl)c2)[C@H]1c1ccc(Cl)cc1 and report it.
// result 4750

* * *

# test_protocol: Plasma pharmacokinetics of AMG 232 at steady state (LC-MS/MS, noncompartmental)
# Format: in vivo, human
# test_parameters: human, plasma, oral, 120 mg, Cycle 2 Day 7, co-administered with T + D, Arm 1, 120 mg; geometric mean (CV%); read-out: AUC24hr
readout_label: AUC(0-t) (ng·h/mL)
Answer with a number only, understood to be in ng·h/mL.

// query If you can, please state the reported AUC(0-t) value of CC(C)[C@@H](CS(=O)(=O)C(C)C)N1C(=O)[C@@](C)(CC(=O)O)C[C@H](c2cccc(Cl)c2)[C@H]1c1ccc(Cl)cc1 .
// result 3140

* * *

# test_protocol: Plasma pharmacokinetics of trametinib and dabrafenib at steady state (LC-MS/MS, noncompartmental)
# Assay type: in vivo, human
# test_parameters: human, plasma, oral, 2 mg, trametinib 2 mg QD, Cycle 1 Day 21 without AMG 232, Arm 2 cohort 3 (AMG 232 240 mg); geometric mean (CV%)
readout_label: Cmax (ng/mL)
State just the number; it will be interpreted in ng/mL.

// query Bench note: what Cmax did CC(=O)Nc1cccc(-n2c(=O)n(C3CC3)c(=O)c3c(Nc4ccc(I)cc4F)n(C)c(=O)c(C)c32)c1 [trametinib] show?
// result 22.1

* * *

# test_protocol: Plasma pharmacokinetics of trametinib and dabrafenib at steady state (LC-MS/MS, noncompartmental)
# Type: in vivo, human
# test_parameters: human, plasma, oral, dabrafenib 150 mg BID, Cycle 2 Day 7, T + D with AMG 232, Arm 1 cohort 2 (AMG 232 180 mg); geometric mean (CV%)
readout_label: Cmax (ng/mL)
Write the answer as a number in ng/mL, unit excluded.

// query Bench note: what Cmax did CC(C)(C)c1nc(-c2cccc(NS(=O)(=O)c3c(F)cccc3F)c2F)c(-c2ccnc(N)n2)s1 show?
// result 1750

* * *

# test_protocol: Plasma pharmacokinetics of trametinib and dabrafenib at steady state (LC-MS/MS, noncompartmental)
# Format: in vivo, human
# test_parameters: human, plasma, oral, 2 mg, trametinib 2 mg QD, Cycle 1 Day 21 without AMG 232, Arm 2 cohort 1 (AMG 232 120 mg); geometric mean (CV%)
readout_label: Cmax (ng/mL)
Provide the reading as a plain figure in ng/mL.

// query // returns reported Cmax for input CC(=O)Nc1cccc(-n2c(=O)n(C3CC3)c(=O)c3c(Nc4ccc(I)cc4F)n(C)c(=O)c(C)c32)c1
// result 21.5

* * *

# test_protocol: Plasma pharmacokinetics of trametinib and dabrafenib at steady state (LC-MS/MS, noncompartmental)
# Assay type: in vivo, human
# test_parameters: human, plasma, oral, 150 mg BID, dabrafenib 150 mg BID, Cycle 1 Day 21, T + D without AMG 232, Arm 1 cohort 2 (AMG 232 180 mg); geometric mean (CV%); read-out: AUC6hr
readout_label: AUC(0-t)
Provide a numeric answer, followed by its unit.

// query Would you kindly share the measured AUC(0-t) for CC(C)(C)c1nc(-c2cccc(NS(=O)(=O)c3c(F)cccc3F)c2F)c(-c2ccnc(N)n2)s1 ?
// result 7450 ng·h/mL

* * *

# test_protocol: Plasma pharmacokinetics of trametinib and dabrafenib at steady state (LC-MS/MS, noncompartmental)
# Format: in vivo, human
# test_parameters: human, plasma, oral, trametinib 2 mg QD, Cycle 2 Day 7 with AMG 232, Arm 2 cohort 2 (AMG 232 180 mg); n = 1; read-out: tmax
readout_label: Tmax (h)
Numbers only here, please. The scale is h.

// query Which Tmax value is on record for CC(=O)Nc1cccc(-n2c(=O)n(C3CC3)c(=O)c3c(Nc4ccc(I)cc4F)n(C)c(=O)c(C)c32)c1 [trametinib] ?
// result 2

* * *

# test_protocol: Plasma pharmacokinetics of trametinib and dabrafenib at steady state (LC-MS/MS, noncompartmental)
# Assay type: in vivo, human
# test_parameters: human, plasma, oral, trametinib 2 mg QD, Cycle 2 Day 7 with AMG 232, Arm 1 cohort 1 (AMG 232 120 mg); median (min-max); read-out: tmax
readout_label: Tmax (h)
Write the answer as a number in h, unit excluded.

// query Bench note: what Tmax did CC(=O)Nc1cccc(-n2c(=O)n(C3CC3)c(=O)c3c(Nc4ccc(I)cc4F)n(C)c(=O)c(C)c32)c1 show?
// result 2

* * *

# test_protocol: Plasma pharmacokinetics of AMG 232 at steady state (LC-MS/MS, noncompartmental)
# Format: in vivo, human
# test_parameters: human, plasma, oral; Cycle 2 Day 7, co-administered with T, Arm 2, 240 mg; median (min-max)
# Text: The following PK parameters were estimated: maximum observed plasma concentration (Cmax), time to reach Cmax (tmax), area-under-the-plasma concentration-time curve (AUC), terminal phase half-life (t1/2,z), and apparent total body clearance (CL/F). We performed noncompartmental analyses for PK parameter estimation using Phoenix® WinNonlin® version 6.4 or later software (Certara™, Princeton, NJ). […]
readout_label: Tmax (h)
A number alone suffices; assume h.

// query Tell me the measured Tmax of CC(C)[C@@H](CS(=O)(=O)C(C)C)N1C(=O)[C@@](C)(CC(=O)O)C[C@H](c2cccc(Cl)c2)[C@H]1c1ccc(Cl)cc1 , please.
// result 1.5

* * *

# test_protocol: Plasma pharmacokinetics of trametinib and dabrafenib at steady state (LC-MS/MS, noncompartmental)
# Type: in vivo, human
# test_parameters: human, plasma, oral, 150 mg BID, dabrafenib 150 mg BID, Cycle 1 Day 21, T + D without AMG 232, Arm 1 cohort 2 (AMG 232 180 mg); median (min-max); read-out: tmax
readout_label: Tmax (h)
The reply should be a number in h, with the unit left off.

// query Consider the compound shown here: CC(C)(C)c1nc(-c2cccc(NS(=O)(=O)c3c(F)cccc3F)c2F)c(-c2ccnc(N)n2)s1 What is its recorded Tmax?
// result 1

* * *

# test_protocol: Plasma pharmacokinetics of trametinib and dabrafenib at steady state (LC-MS/MS, noncompartmental)
# Format: in vivo, human
# test_parameters: human, plasma, oral, trametinib 2 mg QD, Cycle 2 Day 7 with AMG 232, Arm 2 cohort 2 (AMG 232 180 mg); n = 1
readout_label: Cmax (ng/mL)
Could you give me the number in ng/mL? Just the number is fine.

// query Returns the measured Cmax for the input compound. Input: CC(=O)Nc1cccc(-n2c(=O)n(C3CC3)c(=O)c3c(Nc4ccc(I)cc4F)n(C)c(=O)c(C)c32)c1 [trametinib]
// result 21.8

* * *

# test_protocol: Plasma pharmacokinetics of trametinib and dabrafenib at steady state (LC-MS/MS, noncompartmental)
# Type: in vivo, human
# test_parameters: human, plasma, oral, 2 mg, trametinib 2 mg QD, Cycle 1 Day 21 without AMG 232, Arm 2 cohort 3 (AMG 232 240 mg); median (min-max); read-out: tmax
readout_label: Tmax (h)
Please give a number only; it is taken to be in h.

// query Field request: Tmax | item: CC(=O)Nc1cccc(-n2c(=O)n(C3CC3)c(=O)c3c(Nc4ccc(I)cc4F)n(C)c(=O)c(C)c32)c1
// result 2

* * *

# test_protocol: Plasma pharmacokinetics of AMG 232 at steady state (LC-MS/MS, noncompartmental)
# Type: in vivo, human
# test_parameters: human, plasma, oral, 180 mg, Cycle 2 Day 7, co-administered with T, Arm 2, 180 mg; geometric mean (CV%)
readout_label: Cmax (ng/mL)
Write down the numeric answer in ng/mL and omit the unit.

// query Give its Cmax value. Item: CC(C)[C@@H](CS(=O)(=O)C(C)C)N1C(=O)[C@@](C)(CC(=O)O)C[C@H](c2cccc(Cl)c2)[C@H]1c1ccc(Cl)cc1 [AMG 232]
// result 1010

* * *

# test_protocol: Plasma pharmacokinetics of AMG 232 at steady state (LC-MS/MS, noncompartmental)
# Type: in vivo, human
# test_parameters: human, plasma, oral, 180 mg, Cycle 1 Day 7, AMG 232 monotherapy, Arm 1, 180 mg; geometric mean (CV%)
readout_label: Cmax (ng/mL)
The reply should be a number in ng/mL, with the unit left off.

// query // lookup Cmax for CC(C)[C@@H](CS(=O)(=O)C(C)C)N1C(=O)[C@@](C)(CC(=O)O)C[C@H](c2cccc(Cl)c2)[C@H]1c1ccc(Cl)cc1 [AMG 232]
// result 847

* * *

# test_protocol: Plasma pharmacokinetics of trametinib and dabrafenib at steady state (LC-MS/MS, noncompartmental)
# Type: in vivo, human
# test_parameters: human, plasma, oral, dabrafenib 150 mg BID, Cycle 1 Day 21, T + D without AMG 232, Arm 1 cohort 1 (AMG 232 120 mg); median (min-max); read-out: tmax
readout_label: Tmax (h)
Give the quantity in h, number only.

// query Field request: Tmax | item: CC(C)(C)c1nc(-c2cccc(NS(=O)(=O)c3c(F)cccc3F)c2F)c(-c2ccnc(N)n2)s1 [dabrafenib]
// result 1

The reported measurements were obtained from paper PMC9395504.
